// reported Production rate of Alvocidib per item
assay_name: Evaluation of conversion rate to active form in buffer solution (Experimental Example 1)
Assay type: physicochemical
measurement_setup: pH6.5, 2 hr, 37° C., 25 umol/L in buffer solution
quantity_kind: Production rate of Alvocidib (%)

compound="CCN(C[C@@H]1CCCCN1)C(=O)Oc1cc(O)c2c(=O)cc(-c3ccccc3Cl)oc2c1[C@H]1CCN(C)C[C@H]1O [Example 1, ditrifluoroacetate]" units_text=% numeric_result=30.1
compound="CN1CC[C@H](c2c(OC(=O)N(CCF)CC3CCCCN3)cc(O)c3c(=O)cc(-c4ccccc4Cl)oc23)[C@H](O)C1 (stereo partly drawn) [Example 11]" units_text=% numeric_result=60.2
compound="CCN(C[C@H]1CCCCN1)C(=O)Oc1cc(O)c2c(=O)cc(-c3ccccc3Cl)oc2c1[C@H]1CCN(C)C[C@H]1O [Example 2]" units_text=% numeric_result=27.2

----------
// reported Residual rate per item
assay_name: Evaluation of conversion rate to active form in buffer solution (Experimental Example 1)
Assay type: physicochemical
measurement_setup: pH7.0, 0 hr, 37° C., 25 umol/L in buffer solution
quantity_kind: Residual rate (%)

molecule="CCN(C[C@@H]1CCCCN1)C(=O)Oc1cc(O)c2c(=O)cc(-c3ccccc3Cl)oc2c1[C@H]1CCN(C)C[C@H]1O [Example 1, ditrifluoroacetate]" numeric_result=98.9
molecule="CCN(CCC1CCCCN1)C(=O)Oc1cc(O)c2c(=O)cc(-c3ccccc3Cl)oc2c1[C@H]1CCN(C)C[C@H]1O (some centres unmarked)" numeric_result=86.2
molecule="CN1CC[C@H](c2c(OC(=O)N(CCC(F)(F)F)CC3CCCCN3)cc(O)c3c(=O)cc(-c4ccccc4Cl)oc23)[C@H](O)C1 (some centres unmarked)" numeric_result=78.3
molecule="CN1CC[C@H](c2c(OC(=O)N(C)CC3CCCCN3)cc(O)c3c(=O)cc(-c4ccccc4Cl)oc23)[C@H](O)C1 (some centres unmarked)" numeric_result=92.5
molecule=CCN(C[C@H]1CCCCN1)C(=O)Oc1cc(O)c2c(=O)cc(-c3ccccc3Cl)oc2c1[C@H]1CCN(C)C[C@H]1O numeric_result=95.4
molecule="CCNC(=O)Oc1cc(O)c2c(=O)cc(-c3ccccc3Cl)oc2c1[C@H]1CCN(C)C[C@H]1O [Comparative Example 1, reference compound]" numeric_result=77.8
molecule="CN1CC[C@H](c2c(OC(=O)N(CCCC(F)(F)F)CC3CCCCN3)cc(O)c3c(=O)cc(-c4ccccc4Cl)oc23)[C@H](O)C1 (some centres unmarked)" numeric_result=53.4
molecule="CN1CC[C@H](c2c(OC(=O)N(CCF)CC3CCCCN3)cc(O)c3c(=O)cc(-c4ccccc4Cl)oc23)[C@H](O)C1 (some centres unmarked)" numeric_result=80.0
molecule="COCCN(CC1CCCCN1)C(=O)Oc1cc(O)c2c(=O)cc(-c3ccccc3Cl)oc2c1[C@H]1CCN(C)C[C@H]1O (some centres unmarked)" numeric_result=80.2
molecule="CC(C)N(CC1CCCCN1)C(=O)Oc1cc(O)c2c(=O)cc(-c3ccccc3Cl)oc2c1[C@H]1CCN(C)C[C@H]1O (some centres unmarked)" numeric_result=90.7
molecule=CN1CC[C@H](c2c(OC(=O)N(C)C[C@H]3CCCCN3)cc(O)c3c(=O)cc(-c4ccccc4Cl)oc23)[C@H](O)C1 numeric_result=98.8

----------
assay_name: Evaluation of conversion rate to active form in buffer solution (Experimental Example 1)
Assay type: physicochemical
measurement_setup: pH7.4, 0 hr, 37° C., 25 umol/L in buffer solution
quantity_kind: Production rate of Alvocidib (%)

compound=CN1CC[C@H](c2c(OC(=O)N(C)C[C@H]3CCCCN3)cc(O)c3c(=O)cc(-c4ccccc4Cl)oc23)[C@H](O)C1 quantity_kind="Production rate of Alvocidib" units_text=% numeric_result=0.8
compound="COCCN(CC1CCCCN1)C(=O)Oc1cc(O)c2c(=O)cc(-c3ccccc3Cl)oc2c1[C@H]1CCN(C)C[C@H]1O (stereo partly shown)" quantity_kind="Production rate of Alvocidib" units_text=% numeric_result=3.9
compound=CCCN(C[C@@H]1CCCCN1)C(=O)Oc1cc(O)c2c(=O)cc(-c3ccccc3Cl)oc2c1[C@H]1CCN(C)C[C@H]1O quantity_kind="Production rate of Alvocidib" units_text=% numeric_result=0.0
compound="CN1CC[C@H](c2c(OC(=O)N(CCF)CC3CCCCN3)cc(O)c3c(=O)cc(-c4ccccc4Cl)oc23)[C@H](O)C1 (stereo partly shown)" quantity_kind="Production rate of Alvocidib" units_text=% numeric_result=4.6

----------
assay_name: Evaluation of conversion rate to active form in buffer solution (Experimental Example 1)
Assay type: physicochemical
measurement_setup: pH6.5, 2 hr
// reported Production rate of Alvocidib per item
quantity_kind: Production rate of Alvocidib (%)

compound="CN1CC[C@H](c2c(O)cc(O)c3c(=O)cc(-c4ccccc4Cl)oc23)[C@H](OC(=O)CN)C1 [Comparative Example 8, reference compound]" quantity_kind="Production rate of Alvocidib" numeric_result=54.4
compound="CNC(=O)Oc1cc(O)c2c(=O)cc(-c3ccccc3Cl)oc2c1[C@H]1CCN(C)C[C@H]1O [Comparative Example 2, reference compound]" quantity_kind="Production rate of Alvocidib" numeric_result=98.5
compound="CC(C)[C@H](N)C(=O)O[C@@H]1CN(C)CC[C@@H]1c1c(O)cc(O)c2c(=O)cc(-c3ccccc3Cl)oc12 [Comparative Example 10, reference compound]" quantity_kind="Production rate of Alvocidib" numeric_result=15.6
compound="CNC(=O)O[C@@H]1CN(C)CC[C@@H]1c1c(O)cc(O)c2c(=O)cc(-c3ccccc3Cl)oc12 [Comparative Example 5, reference compound]" quantity_kind="Production rate of Alvocidib" numeric_result=0.0
compound="C[C@H](N)C(=O)O[C@@H]1CN(C)CC[C@@H]1c1c(O)cc(O)c2c(=O)cc(-c3ccccc3Cl)oc12 [Comparative Example 7, reference compound]" quantity_kind="Production rate of Alvocidib" numeric_result=83.2
compound="CCOC(=O)O[C@@H]1CN(C)CC[C@@H]1c1c(O)cc(O)c2c(=O)cc(-c3ccccc3Cl)oc12 [Comparative Example 3, reference compound]" quantity_kind="Production rate of Alvocidib" numeric_result=1.3

----------
// reported Residual rate per item
assay_name: Evaluation of conversion rate to active form in buffer solution (Experimental Example 1)
Format: physicochemical
measurement_setup: pH7.0, 3 hr
quantity_kind: Residual rate

compound="CNC(=O)O[C@@H]1CN(C)CC[C@@H]1c1c(O)cc(O)c2c(=O)cc(-c3ccccc3Cl)oc12 [Comparative Example 5, reference compound]" result=93.3%
compound="CNC(=O)Oc1cc(O)c2c(=O)cc(-c3ccccc3Cl)oc2c1[C@H]1CCN(C)C[C@H]1O [Comparative Example 2, reference compound]" result=0.0%
compound="CN1CC[C@H](c2c(O)cc(O)c3c(=O)cc(-c4ccccc4Cl)oc23)[C@H](OC(=O)[C@@H](N)CO)C1 [Comparative Example 9, reference compound]" result=42.9%
compound="CCOC(=O)O[C@@H]1CN(C)CC[C@@H]1c1c(O)cc(O)c2c(=O)cc(-c3ccccc3Cl)oc12 [Comparative Example 3, reference compound]" result=90.8%

----------
// reported Production rate of Alvocidib per item
assay_name: Evaluation of conversion rate to active form in buffer solution (Experimental Example 1)
Assay type: physicochemical
measurement_setup: pH5.5, 0.5 hr, 37° C., 25 umol/L in buffer solution
Counter-ions that a name gives are not always drawn.
quantity_kind: Production rate of Alvocidib (%)

compound="CN1CC[C@H](c2c(OC(=O)N(Cc3ccccc3)CC3CCCCN3)cc(O)c3c(=O)cc(-c4ccccc4Cl)oc23)[C@H](O)C1 (stereo partly shown) [Example 15]" quantity_kind="Production rate of Alvocidib" numeric_result=2.8
compound="CCN(CC1CCCCN1)C(=O)Oc1cc(O)c2c(=O)cc(-c3ccccc3Cl)oc2c1[C@H]1CCN(C)C[C@H]1O (stereo partly shown) [Example 7, dihydrochloride]" quantity_kind="Production rate of Alvocidib" numeric_result=1.2
compound="CCCN(C[C@H]1CCCCN1)C(=O)Oc1cc(O)c2c(=O)cc(-c3ccccc3Cl)oc2c1[C@H]1CCN(C)C[C@H]1O [Example 6]" quantity_kind="Production rate of Alvocidib" numeric_result=1.6
compound="CCCN(C[C@@H]1CCCCN1)C(=O)Oc1cc(O)c2c(=O)cc(-c3ccccc3Cl)oc2c1[C@H]1CCN(C)C[C@H]1O [Example 5]" quantity_kind="Production rate of Alvocidib" numeric_result=1.2

----------
assay_name: Evaluation of conversion rate to active form in buffer solution (Experimental Example 1)
Type: physicochemical
measurement_setup: pH6.0, 0 hr, 37° C., 25 umol/L in buffer solution
Answer not satisfied if Production rate of Alvocidib is under 2%, and satisfied if it is 2% or more.

compound="CC(C)N(CC1CCCCN1)C(=O)Oc1cc(O)c2c(=O)cc(-c3ccccc3Cl)oc2c1[C@H]1CCN(C)C[C@H]1O (stereo partly drawn) [Example 10]" group_label="not satisfied"
compound="CN1CC[C@H](c2c(OC(=O)N(CCCC(F)(F)F)CC3CCCCN3)cc(O)c3c(=O)cc(-c4ccccc4Cl)oc23)[C@H](O)C1 (stereo partly drawn) [Example 14]" group_label=satisfied
compound="CCNC(=O)Oc1cc(O)c2c(=O)cc(-c3ccccc3Cl)oc2c1[C@H]1CCN(C)C[C@H]1O [Comparative Example 1, reference compound]" group_label=satisfied
compound="CCN(CCC1CCCCN1)C(=O)Oc1cc(O)c2c(=O)cc(-c3ccccc3Cl)oc2c1[C@H]1CCN(C)C[C@H]1O (stereo partly drawn) [Example 16]" group_label="not satisfied"
compound="CN1CC[C@H](c2c(OC(=O)N(Cc3ccccc3)CC3CCCCN3)cc(O)c3c(=O)cc(-c4ccccc4Cl)oc23)[C@H](O)C1 (stereo partly drawn) [Example 15]" group_label="not satisfied"
compound="CCN(C[C@H]1CCCCN1)C(=O)Oc1cc(O)c2c(=O)cc(-c3ccccc3Cl)oc2c1[C@H]1CCN(C)C[C@H]1O [Example 2]" group_label="not satisfied"
